Each record here notes measured pIC50.
# tgt: Histone-lysine N-methyltransferase EHMT1 (Homo sapiens)
# Sequence (Q9H9B1 whole entry): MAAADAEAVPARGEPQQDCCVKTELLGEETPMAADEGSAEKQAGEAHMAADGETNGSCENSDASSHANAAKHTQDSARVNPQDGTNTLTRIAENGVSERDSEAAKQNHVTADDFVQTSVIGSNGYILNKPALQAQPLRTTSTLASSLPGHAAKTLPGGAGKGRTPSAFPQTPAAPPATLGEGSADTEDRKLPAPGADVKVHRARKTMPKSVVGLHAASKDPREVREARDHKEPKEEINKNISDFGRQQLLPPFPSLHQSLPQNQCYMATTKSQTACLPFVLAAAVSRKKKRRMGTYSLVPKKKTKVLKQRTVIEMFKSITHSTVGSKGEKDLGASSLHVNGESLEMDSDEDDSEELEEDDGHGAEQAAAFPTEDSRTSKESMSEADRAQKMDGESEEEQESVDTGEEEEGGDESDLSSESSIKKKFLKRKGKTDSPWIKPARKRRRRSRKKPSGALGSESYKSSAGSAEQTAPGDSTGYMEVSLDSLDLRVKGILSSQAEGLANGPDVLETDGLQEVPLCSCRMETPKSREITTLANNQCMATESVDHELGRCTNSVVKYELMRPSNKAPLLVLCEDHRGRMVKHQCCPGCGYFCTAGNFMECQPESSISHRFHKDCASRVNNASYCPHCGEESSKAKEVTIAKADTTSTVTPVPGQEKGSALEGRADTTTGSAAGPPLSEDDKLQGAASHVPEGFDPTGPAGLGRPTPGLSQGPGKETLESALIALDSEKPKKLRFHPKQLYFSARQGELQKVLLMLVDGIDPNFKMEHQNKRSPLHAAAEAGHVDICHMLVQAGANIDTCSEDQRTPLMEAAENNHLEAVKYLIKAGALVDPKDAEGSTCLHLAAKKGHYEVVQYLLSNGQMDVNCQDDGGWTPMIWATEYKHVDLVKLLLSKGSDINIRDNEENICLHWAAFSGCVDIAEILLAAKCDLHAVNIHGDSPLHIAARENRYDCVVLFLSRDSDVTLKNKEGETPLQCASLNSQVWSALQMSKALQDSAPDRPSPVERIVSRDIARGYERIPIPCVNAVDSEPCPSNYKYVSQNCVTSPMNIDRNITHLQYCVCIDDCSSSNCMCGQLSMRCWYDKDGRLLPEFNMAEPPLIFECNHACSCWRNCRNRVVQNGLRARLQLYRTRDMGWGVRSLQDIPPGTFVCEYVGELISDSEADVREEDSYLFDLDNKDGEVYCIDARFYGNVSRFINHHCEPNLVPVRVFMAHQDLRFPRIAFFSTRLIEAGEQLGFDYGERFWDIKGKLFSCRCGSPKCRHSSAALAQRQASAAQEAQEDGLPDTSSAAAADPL
The meaning of pIC50 here: minus log10 of the concentration in molar units.

CNc1cc(C)nc(Nc2ccc(OC(F)(F)F)c(C3=CCNCCC3)c2)n1 ... 5.42

Query: pIC50 lookup needed for CNc1cc(C)nc(Nc2ccc(OC)c(C3CCCNCC3)c2)n1 (racemic) , thanks.
Result: 6.47

Query: Subsequent entry: CNc1cc(C)nc(Nc2ccc(OC)c(C3=CCNCCC3)c2)n1
Result: 7.49

Query: Subsequent entry: CNc1cc(C)nc(Nc2ccc(OC)c(C3=CCN(C)CC3)c2)n1
Result: 6.56

Query: Subsequent entry: CNc1cc(C)nc(Nc2ccc(OC)c(C3=CCCNCC3)c2)n1
Result: 6.32

Query: Subsequent entry: CNc1cc(C)nc(Nc2ccc(OC)c(C3=CCNCC3)c2)n1
Result: 5.94

Query: Subsequent entry: CNc1cc(C)nc(Nc2ccc(OC)c(C3=CCN(CCO)CCC3)c2)n1
Result: 5.80

Query: Subsequent entry: CNc1cc(C)nc(Nc2ccc(OC)c(C3=CCN(C)CCC3)c2)n1
Result: 7.13

----------
# tgt: CYP3A4 (Homo sapiens)
# Sequence (P08684 whole entry): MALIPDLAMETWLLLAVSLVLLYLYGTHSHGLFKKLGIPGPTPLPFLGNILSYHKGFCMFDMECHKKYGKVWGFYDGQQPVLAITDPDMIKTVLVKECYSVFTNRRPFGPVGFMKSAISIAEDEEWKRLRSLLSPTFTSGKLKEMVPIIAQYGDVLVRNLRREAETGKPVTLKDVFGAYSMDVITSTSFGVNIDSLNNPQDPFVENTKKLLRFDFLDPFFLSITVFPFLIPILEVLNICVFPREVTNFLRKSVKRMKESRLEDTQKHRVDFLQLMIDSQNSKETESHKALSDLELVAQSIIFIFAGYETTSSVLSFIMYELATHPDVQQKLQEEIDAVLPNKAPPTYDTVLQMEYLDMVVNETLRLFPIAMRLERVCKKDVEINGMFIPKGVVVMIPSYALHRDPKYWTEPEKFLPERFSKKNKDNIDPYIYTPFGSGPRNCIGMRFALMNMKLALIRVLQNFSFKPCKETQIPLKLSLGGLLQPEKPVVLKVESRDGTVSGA
# assay details: Mechanism based inhibition of CYP3A4 in human liver microsome assessed as remaining percentage at 100 uM in presence of substrate ACN preincubated 30 mins followed by substrate addition relative to control
# Type: ADME
# test settings: liver microsomes, probe ACN (so in the source), read-out: Activity
measure name: activity at 30 min, 100 µM (%)
Write down the numeric answer in % and omit the unit.

CNc1cc(C)nc(Nc2ccc(OC)c(C3=CCN(C)CCC3)c2)n1 ... 87.3
CNc1cc(C)nc(Nc2ccc(OC)c(OCCCN3CCCC3)c2)n1 ... 93.6

// next entry
Query: activity at 30 min, 100 µM lookup needed for CNc1cc(C)nc(Nc2ccc(OC)c(C3=CCNCCC3)c2)n1 , thanks.
Result: 80.5
